Test system: LOX IMVI melanoma
protocol_description: NCI-60 one-dose screen, 48 h (100 = growth as untreated, 0 = no growth, -100 = all killed)
measurement_parameters: 10 µM unless noted
The panel holds about 83,000 compounds, 20% with a hit somewhere; the sample as a whole holds those more often.
Measured growth by item
State the answer as a number, implicitly in %.

Sample records with growth:
Query: # return growth for CSc1nn2c(-c3ccc4ccccc4c3)ccnc2c1C#N , test system: LOX IMVI melanoma
Reply: 21.7

Query: Report measured growth on LOX IMVI melanoma; entry: CC(=O)OC(c1ccccc1)C1CCOC1=O (centres undefined)
Reply: 96.7

Others:
Query: Give growth; test system LOX IMVI melanoma; compound CC(C)N1C(=O)/C(=c2\sc3n(c2=O)C2C(NN=3)N(C)C(=O)N2C)c2ccccc21 (centres undefined)
Reply: 56.6

----------
Test system: U251 CNS
protocol_description: NCI-60 one-dose screen, 48 h
measurement_parameters: 10 µM unless noted
About 83,000 compounds went through this panel and 20% of them were active in at least one assay; those are over-represented in the sample as a whole. Activity calls are given as the source filed them. The calls were made as follows: active = growth percent below 10; inactive = the rest.
Hello, when you answer, please use one of the following outcomes: active, inactive

Query: # fetch the recorded call for O=C(Nc1ccccc1N1CCCC1=O)c1oc2ccc(F)cc2c1-c1cnn(-c2ccccc2)c1 here
Reply: inactive

Query: Give the logged outcome of this assay for the following molecule: O=C(Cc1ccc(/C=C/C(=O)c2ncc[nH]2)cc1)Nc1cc(C(F)(F)F)cc(C(F)(F)F)c1
Reply: inactive

Query: Hi team, can someone confirm the assay call for N#CC1CCc2c(c(-c3ccc4nc(N)sc4c3)nc3ccc4[nH]ncc4c23)C1 (stereo unspecified) ?
Reply: inactive

Query: Recorded test call requested for C=CCN1C(=O)c2cccc3c(N4CCOCC4)ccc(c23)C1=O
Reply: active

Query: What is the recorded call for this molecule in the test? CCN1C(=O)N(CC)C2C1NC(=S)N2/N=C/c1ccc(C(F)(F)F)cc1 (stereo unspecified)
Reply: inactive

Next item in the queue.
Query: In this assay, the call recorded for CCOC(=O)C(=Cc1ccc(-c2ccccc2)cc1)C(=O)OCC was what?
Reply: inactive

----------
Tested on: T-47D breast
protocol_description: NCI-60 one-dose screen, 48 h (100 = growth as untreated, 0 = no growth, -100 = all killed)
measurement_parameters: 10 µM unless noted
This is part of a sample that, as a whole, favours compounds with a hit. Of some 83,000 tested, about 20% had one in any assay.
Entries whose growth is below 50% take MET; entries at or above 50% take NOT MET.

# example entries with known answers
Query: Field: below-cutoff. Rule: recorded growth strictly less than 50%. Subject: COC(=O)/C=C1/SC(=Nc2ccc([N+](=O)[O-])cc2)N(CCc2c[nH]c3ccc(O)cc23)C1=O
Reply: NOT MET

Query: Does NS(=O)(=O)c1ccc(NC(=O)/C(=C\c2ccc(Cl)cc2Cl)NC(=O)c2ccccc2)cc1 have growth strictly under 50%?
Reply: NOT MET

Query: # check: growth < 50% for Cc1ccc(C(=O)c2ccc(CC(=O)N=Nc3c(O)[nH]c4ccc(Br)cc34)n2C)cc1
Reply: NOT MET

Continuing:
Query: Does the reported growth of the following compound sit strictly below 50%? Cc1ccc2c(-n3nc(C#N)c(C#N)c3N)cc(=O)[nH]c2c1
Reply: NOT MET

Query: hey, is growth for Nn1c(=O)c(=O)[nH]c2c(cnn2-c2ccccc2)c1=O lower than 50% or not?
Reply: NOT MET

Query: I'd appreciate it if you could check whether CC/C=C\CCC/C=C1/C(=O)C=C[C@@H]1C/C=C\CCCC(=O)OC has growth smaller than 50%.
Reply: MET

Query: Identify whether the compound CCOc1ccc(-n2nc(C(=O)NCc3ccccc3OC)nc2-c2cc(OC)c(OC)c(OC)c2)cc1 records growth below 50%.
Reply: MET

----------
Test system: HCT-15 colon
protocol_description: NCI-60 one-dose screen, 48 h (100 = growth as untreated, 0 = no growth, -100 = all killed)
measurement_parameters: 10 µM unless noted
The panel holds about 83,000 compounds, 20% with a hit somewhere; the sample as a whole holds those more often.
Recorded growth, one value per entry.
Quick reminder: number only, in %, skip the unit.

Consider the worked cases shown below.
Query: Recall the reported growth of CCSc1oc(C)nc1[P+](c1ccccc1)(c1ccccc1)c1ccccc1 when tested on HCT-15 colon.
Reply: 92.1

Query: GET growth | system: HCT-15 colon | item: C=C1C(=O)O[C@H]2[C@H]1CC/C(COC(=O)/C=C\C(=O)NCc1ccc(Cn3c(=O)sn(CCCl)c3=O)cc1)=C\CC[C@@]1(C)O[C@@H]21
Reply: 44.8

Query: Provide growth, recorded with HCT-15 colon, of Cc1cccc[n+]1C1c2ccccc2-c2ccccc21
Reply: 109

Query: Report value only: growth, HCT-15 colon, C#CC#CC#CC#CC#CC#CC#CC#CCC1OC[C@H](COC(=O)O[C@@H](C(=O)O[C@H]2C[C@@]3(O)[C@@H](OC(=O)c4ccccc4)[C@@H]4[C@]5(OC(C)=O)CO[C@@H]5C[C@H](O)[C@@]4(C)C(=O)[C@H](OC(C)=O)C(=C2C)C3(C)C)[C@@H](NC(=O)c2ccccc2)c2ccccc2)O1 (some centres undefined)
Reply: 88

Query: Please report the measured growth for COc1ccc2nc(Cl)c(/C=C3\CC(c4ccccc4)=NN(c4ccccc4)C3=O)cc2c1 tested on HCT-15 colon.
Reply: 84.5

Further cases:
Query: GET growth | system: HCT-15 colon | item: O=C1/C(=C\c2cccc3nccnc23)SC(=S)N1CCc1ccc(O)cc1
Reply: 101

Query: Answer with growth of COc1ccc(C2=CN3CC=CC3CC2=O)cc1 (centres undefined) measured for HCT-15 colon.
Reply: 95.2

Query: Lab note: HCT-15 colon assay, enter growth for CCOC(=O)c1c(C)nc2c(c1N)CC(=O)N2Cc1ccc(OC)cc1 here
Reply: 55.6

----------
Tested on: PC-3 prostate
protocol_description: NCI-60 one-dose screen, 48 h (100 = growth as untreated, 0 = no growth, -100 = all killed)
measurement_parameters: 10 µM unless noted
About 83,000 compounds went through this panel and 20% of them were active in at least one assay; those are over-represented in the sample as a whole. Calls of active or inactive are those of the source. The calls were made as follows: active = growth percent below 10; inactive = the rest.
measured_parameter: growth

Query: Entry CCCCCN(CCCCC)CC(O)c1cc(C)c2ccc3cc(C(C)C)ccc3c2c1 (centres undefined) needs its growth filled in; supply it.
Reply: 53.3% (inactive)

Query: Consider the molecule Cc1nc2c(=O)nc3s/c(=C\c4ccco4)c(=O)n3c2nc1C and give its recorded growth.
Reply: 97.6% (inactive)

Query: Consider the molecule CC1C=CC(OC(=O)C(C)(O)CCC(O)(C(=O)OC2CC(O)C(C(C)C)CC2(C)O)C(C)C)(C(C)C)CC1 (centres undefined) and give its recorded growth.
Reply: -84.9% [4.63 µM] (active)

Next:
Query: Read the entry COc1ccc(C2=CN3CC=CC3CC2=O)cc1 (centres undefined) and write its reported growth.
Reply: 92.1% (inactive)

----------
System: SK-MEL-2 melanoma
protocol_description: NCI-60 one-dose screen, 48 h
measurement_parameters: 10 µM unless noted
About 83,000 compounds went through this panel and 20% of them were active in at least one assay; those are over-represented in the sample as a whole. Activity calls are given as the source filed them. Rule for the calls: active = growth percent below 10; inactive = the rest.
Field 'call' accepts yes = active, no = inactive

Use these answered entries as a reference point.
Query: Field: outcome | Entry: CCCn1cnc2c(c1=N)C(c1ccc(F)cc1)c1sc3c(F)cccc3c1O2 (stereo unspecified)
Reply: no

Query: Outcome? C=Cc1cnc(Nc2ccc(OC)cc2)nc1NCCCNC(=O)C1CCC1
Reply: no

Query: Can you look up the reported call for CC1C=CC(OC(=O)C(C)(O)CCC(O)(C(=O)OC2CC(O)C(C(C)C)CC2(C)O)C(C)C)(C(C)C)CC1 (stereo unspecified) for me?
Reply: yes

Query: Identify the outcome logged in this assay for the compound shown: Clc1ccccc1-c1cnn2cc(-c3ccccc3)cnc12
Reply: no

---
Query: # lookup: test call for O=C(Nc1ccccc1O)c1ccc(CNC(=O)c2ccsc2Nc2ccnc(C(F)(F)F)c2)cc1
Reply: yes

Query: Which outcome was assigned to CCOC(=O)c1c(C)c2c(n1Cc1ccccc1)CSCC2=O in this test?
Reply: yes

Query: What outcome does the record of this test show for CCN(CC)Cc1cc(Nc2ccnc3cc(Cl)ccc23)ccc1O ?
Reply: no

Query: Assay result, entry CS(=O)(=O)c1nnc(-c2ccccc2)s1 — outcome?
Reply: no

Query: Status in this test for COc1cc(OC)c(C(=O)C(CN(C)C)CN(C)C)cc1OC ?
Reply: no

Query: Check the results log: what was the call for c1nc2ccc(-c3cc4ccc5[nH]ncc5c4c4c3CCCC4)cc2[nH]1 ?
Reply: no

Query: Recorded call for O=C1Nc2c(C(=O)O)cccc2/C1=N/c1n[nH]c(=S)s1 ?
Reply: no

Query: Tell me the assay call for Cc1ccc(C)c(/C=C2\CN(C(=O)OC(C)(C)C)C/C(=C\c3cc(C)ccc3C)C2=O)c1 please.
Reply: no

Query: For O=C1Nc2ccccc2/C1=C\c1c[nH]c2ccc(Br)cc12 , what call appears in the results of this test?
Reply: no

Query: Please share the test call associated with CC1=C2[C@@H](CC1)[C@]1(C)O[C@@](c3ccccc3)(C[C@H]1OC(=O)CO)[C@H]2OC(=O)/C=C/c1ccccc1 .
Reply: no

Query: For this compound, state the assay outcome: O=C(NNC(=O)c1nc2cc(F)ccc2n2cccc12)c1cnccn1
Reply: no

Query: How was COc1ccc(Oc2nc(Nc3ccc(N4CCOCC4)cc3)ncc2NC(=O)Nc2cc(OC)cc(OC)c2)cc1 classified in this test?
Reply: no
